Where these numbers come from: patent US20240116985A1

Reported CHI Log D values are given for each entry in this list.
- EXPERIMENTAL DETAILS: CHI Log D procedure
- Assay type: physicochemical
- CONDITION PARAMETERS: pH 7.4
Reply with just the number.

Sample records with CHI Log D:
# MOLECULE, CHI Log D
measured = [
    ("CC[C@H](C)[C@@H]1NC(=O)[C@H](CC(=O)O)NC(=O)[C@]2(CC=CCCCC3(CCCC=CCCCCCC[C@@](C)(C(=O)N[C@@H](Cc4ccccc4)C(=O)N[C@@H](Cc4csc5ccccc45)C(=O)N[C@@H](Cc4c[nH]cn4)C(N)=O)NC(=O)[C@H](CCC(N)=O)NC(=O)[C@H](Cc4ccccc4)NC(=O)[C@H](C)NC(=O)[C@H](C)NC(=O)[C@H](CC(=O)O)NC(=O)[C@H](CC(=O)O)NC3=O)NC1=O)CCCN2C(C)=O (stereo partly drawn) [I-581]", 2.458),
    ("CC(=O)N[C@@H](Cc1ccccc1)C(=O)N[C@@H](CC(=O)O)C(=O)N[C@@H](C)C(=O)N[C@]1(C)CCCCCCC=CCOC(=O)N2CC[C@@](C(=O)N[C@@H](Cc3ccncc3)C(=O)N[C@@H](Cc3c[nH]c4ccccc34)C(=O)N[C@@H](CCC(N)=O)C(N)=O)(C2)NC(=O)[C@H](C(C)C)NC(=O)[C@H](Cc2ccccc2)NC(=O)[C@H](C)NC(=O)[C@H](C)NC(=O)[C@H](CC(=O)O)NC(=O)[C@H](CC(=O)O)NC1=O (single isomer, unassigned)", 0.998),
]

With those in mind, consider the next molecule.
Query: Write down CHI Log D measured for item CC(=O)N1CCC[C@]12CC=CCCCC1(CCCC=CCOC(=O)N(C)CCC[C@@](C)(C(=O)N[C@@H](Cc3ccsc3)C(=O)N[C@@H](Cc3csc4ccccc34)C(=O)N[C@@H](CCC(N)=O)C(N)=O)NC(=O)[C@H](CC(N)=O)NC(=O)[C@H](Cc3ccccc3)NC(=O)[C@H](C)NC(=O)[C@H](C)NC(=O)[C@H](CC(=O)O)NC(=O)[C@H](CC(=O)O)NC1=O)NC(=O)[C@H](CC(C)(C)C)NC(=O)[C@H](CC(=O)O)NC2=O (stereo partly drawn) [I-765]
Result: 1.71

----------
- TESTED ON: beta-catenin/TCF4 engagement (Homo sapiens)
- Construct: expressed in transfected cells; host or cells: HEK293
- Sequence (P35222 1-781): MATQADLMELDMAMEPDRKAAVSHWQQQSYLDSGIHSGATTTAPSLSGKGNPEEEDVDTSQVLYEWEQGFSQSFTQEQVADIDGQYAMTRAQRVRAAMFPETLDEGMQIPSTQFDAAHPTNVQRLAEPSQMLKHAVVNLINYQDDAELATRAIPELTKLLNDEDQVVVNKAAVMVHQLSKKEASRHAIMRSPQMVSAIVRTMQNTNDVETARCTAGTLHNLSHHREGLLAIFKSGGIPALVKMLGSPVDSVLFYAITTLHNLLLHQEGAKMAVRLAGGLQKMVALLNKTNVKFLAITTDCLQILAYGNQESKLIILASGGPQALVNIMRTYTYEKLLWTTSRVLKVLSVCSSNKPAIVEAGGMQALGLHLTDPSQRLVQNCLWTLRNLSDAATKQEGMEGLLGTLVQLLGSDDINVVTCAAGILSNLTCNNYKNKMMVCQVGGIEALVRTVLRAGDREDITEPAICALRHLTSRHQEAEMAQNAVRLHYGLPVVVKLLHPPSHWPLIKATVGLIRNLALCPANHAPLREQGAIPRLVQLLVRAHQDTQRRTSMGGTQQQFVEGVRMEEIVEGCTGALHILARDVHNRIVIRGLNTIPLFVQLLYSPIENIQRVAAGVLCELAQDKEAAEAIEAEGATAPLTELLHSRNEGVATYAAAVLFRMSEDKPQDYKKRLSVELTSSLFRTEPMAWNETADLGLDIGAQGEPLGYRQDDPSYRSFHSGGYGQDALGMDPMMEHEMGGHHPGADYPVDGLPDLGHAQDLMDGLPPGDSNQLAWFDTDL
- EXPERIMENTAL DETAILS: Nano-BRET target engagement assay (B-cat-Halo & TCF4-Luc in HEK293 cells)
- Assay type: cell-based
- CONDITION PARAMETERS: absolute IC50; read-out: NanoBRET Abs IC50
ATTRIBUTE MEASURED: IC50 (µM)
State just the number; it will be interpreted in µM.

Sample records with IC50:
# COMPOUND, RESULT UNIT, OBSERVED RESULT
records = [
    ("CC(=O)N1CCC[C@]12CC=CCCCC1(CCCC=CCCCOC(=O)N3CC[C@@](C(=O)N[C@@H](Cc4ccccc4Cl)C(=O)N[C@@H](Cc4csc5ccccc45)C(=O)N[C@@H](CO)C(N)=O)(C3)NC(=O)[C@H](CC(C)C)NC(=O)[C@H](Cc3ccccc3)NC(=O)[C@H](C)NC(=O)[C@H](C)NC(=O)[C@H](Cc3ccccc3C(=O)O)NC(=O)[C@H](CC(=O)O)NC1=O)NC(=O)[C@H](CC(C)(C)C)NC(=O)[C@H](CC(=O)O)NC2=O (some centres unmarked)", "µM", 8.5),
    ("CC(=O)N1CCC[C@]12CC=CCCCC1(CCCC=CCCCOC(=O)N3CC[C@@](C(=O)N[C@@H](Cc4ccccc4C#N)C(=O)N[C@@H](Cc4csc5ccccc45)C(=O)N[C@@H](CCC(N)=O)C(N)=O)(C3)NC(=O)[C@H](CC(C)C)NC(=O)[C@H](Cc3ccccc3)NC(=O)[C@H](C)NC(=O)[C@H](C)NC(=O)[C@H](CC(=O)O)NC(=O)[C@H](CC(=O)O)NC1=O)NC(=O)[C@H](CC(C)(C)C)NC(=O)[C@H](CC(=O)O)NC2=O (some centres unmarked)", "µM", 10),
]

Query: Write down IC50 measured for item CC(=O)N1CCC[C@]12CC=CCCCC1(CCCC=CCCCOC(=O)N3CC[C@@](C(=O)N[C@@H](Cc4ccsc4)C(=O)N[C@@H](Cc4csc5ccccc45)C(=O)N[C@@H](CCC(N)=O)C(=O)N[C@@H](CCCCNC(=O)COCCOCCNC(=O)C45CC6(C)CC(C)(CC(C)(C6)C4)C5)C(N)=O)(C3)NC(=O)[C@H](CC(C)C)NC(=O)[C@H](Cc3ccccc3)NC(=O)[C@H](C)NC(=O)[C@H](C)NC(=O)[C@H](CC(=O)O)NC(=O)[C@H](CC(=O)O)NC1=O)NC(=O)[C@H](CC(C)(C)C)NC(=O)[C@H](CC(=O)O)NC2=O (some centres unmarked)
Result: 9.3
